# System: activated recombinant MAP kinase
# EXPERIMENTAL_DETAILS: Phosphorylation of GFP Erk sensors by MAP kinase, ^32P incorporation
# Type: biochemical
# COND: 10 μM substrate, 100 ng MAP kinase, 30 minutes at 30° C.; mean ± standard deviation of triplicates
# Source text: Experiments were terminated and samples processed as described previously in subsection D.4. Results presented in Table X represent means of triplicate determinations ±standard deviations of ^32P-incorporation in washed pellets as described earlier.
Where no end group is shown, it is not given here.
substances and their reported ^32P-Incorporation (CPM)
READOUT: ^32P-Incorporation (CPM)

Erk-7: GFP mutant K8 with Erk kinase motif Met Thr Gly Pro Leu Ser Pro Gly Pro (MTGPLSPGP; not fully specified; printed as Met Thr Gly Pro Leu Ser Pro Gly Pro) : 25502
Erk-1: GFP mutant K8 with Erk kinase motif Met Val Glu Pro Leu Thr Pro Ser Phe (MVEPLTPSF; not fully specified; printed as Met Val Glu Pro Leu Thr Pro Ser Phe) : 1579
